Reference for the values: patent US20230183713A1

Target: T1, Cre recombinase monomer with E176V mutation
T1 chain: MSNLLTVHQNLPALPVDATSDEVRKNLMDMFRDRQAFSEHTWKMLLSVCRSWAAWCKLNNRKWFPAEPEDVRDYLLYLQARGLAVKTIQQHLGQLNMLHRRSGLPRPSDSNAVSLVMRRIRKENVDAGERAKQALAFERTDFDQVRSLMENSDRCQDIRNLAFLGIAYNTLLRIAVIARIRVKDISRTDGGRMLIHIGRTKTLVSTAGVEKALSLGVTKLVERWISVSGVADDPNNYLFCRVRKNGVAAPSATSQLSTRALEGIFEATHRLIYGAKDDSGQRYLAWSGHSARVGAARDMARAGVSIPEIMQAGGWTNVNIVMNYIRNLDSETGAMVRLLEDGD
Test Readout: Median dimer activity (recombination on loxP) (%)
Use % as the unit, but write only the number.

Form field: reported Median dimer activity (recombination on loxP) of Cre recombinase monomer with R173F mutation (protein) MSNLLTVHQNLPALPVDATSDEVRKNLMDMFRDRQAFSEHTWKMLLSVCRSWAAWCKLNNRKWFPAEPEDVRDYLLYLQARGLAVKTIQQHLGQLNMLHRRSGLPRPSDSNAVSLVMRRIRKENVDAGERAKQALAFERTDFDQVRSLMENSDRCQDIRNLAFLGIAYNTLLFIAEIARIRVKDISRTDGGRMLIHIGRTKTLVSTAGVEKALSLGVTKLVERWISVSGVADDPNNYLFCRVRKNGVAAPSATSQLSTRALEGIFEATHRLIYGAKDDSGQRYLAWSGHSARVGAARDMARAGVSIPEIMQAGGWTNVNIVMNYIRNLDSETGAMVRLLEDGD
82

Others:
Need Median dimer activity (recombination on loxP), item Cre recombinase monomer with R173I mutation (protein) MSNLLTVHQNLPALPVDATSDEVRKNLMDMFRDRQAFSEHTWKMLLSVCRSWAAWCKLNNRKWFPAEPEDVRDYLLYLQARGLAVKTIQQHLGQLNMLHRRSGLPRPSDSNAVSLVMRRIRKENVDAGERAKQALAFERTDFDQVRSLMENSDRCQDIRNLAFLGIAYNTLLIIAEIARIRVKDISRTDGGRMLIHIGRTKTLVSTAGVEKALSLGVTKLVERWISVSGVADDPNNYLFCRVRKNGVAAPSATSQLSTRALEGIFEATHRLIYGAKDDSGQRYLAWSGHSARVGAARDMARAGVSIPEIMQAGGWTNVNIVMNYIRNLDSETGAMVRLLEDGD
44
